Readings of IC50 for the listed molecules
Test system: Mycobacterium tuberculosis
measurement protocol: Growth inhibition of Mycobacterium bovis BCG ATCC 35743 at dormant stage measured after 12 days by nitrate reductase dye based two fold dilution method
Type: functional
condition set: BCG str. ATCC 35743, 288 h

[
  {
    "structure smiles": "O=C1NC(=S)S/C1=C\\c1cc2cc(Cl)ccc2nc1Cl",
    "IC50": "1.3 µg/mL"
  },
  {
    "structure smiles": "COc1ccc2nc(Cl)c(/C=C3\\SC(=S)NC3=O)cc2c1",
    "IC50": "2.9 µg/mL"
  },
  {
    "structure smiles": "Cc1ccc2nc(Cl)c(/C=C3\\SC(=S)N(CC(=O)O)C3=O)cc2c1",
    "IC50": "> 30 µg/mL"
  },
  {
    "structure smiles": "Cc1ccc2nc(Cl)c(/C=C3\\SC(=S)NC3=O)cc2c1",
    "IC50": "> 30 µg/mL"
  },
  {
    "structure smiles": "COc1ccc2cc(/C=C3\\SC(=S)N(CC(=O)O)C3=O)c(Cl)nc2c1",
    "IC50": "> 30 µg/mL"
  },
  {
    "structure smiles": "O=C(O)CN1C(=O)/C(=C/c2cc3ccccc3nc2Cl)SC1=S",
    "IC50": "> 30 µg/mL"
  },
  {
    "structure smiles": "COc1ccc2nc(Cl)c(/C=C3\\SC(=S)N(CC(=O)O)C3=O)cc2c1",
    "IC50": "> 30 µg/mL"
  }
]

----------
Readings of inhibition of growth at 50 µg/mL for the listed molecules
Tested on: Mycobacterium tuberculosis
measurement protocol: Growth inhibition of Mycobacterium bovis BCG ATCC 35743 at dormant stage at 50 ug/ml measured after 12 days by nitrate reductase dye based two fold dilution method relative to control
Format: functional
condition set: BCG str. ATCC 35743, 288 h, read-out: GI

[
  {
    "structure smiles": "O=C1NC(=S)S/C1=C\\c1cc2cc(F)ccc2nc1Cl",
    "inhibition of growth at 50 µg/mL [%]": 100
  },
  {
    "structure smiles": "CCOc1ccc2nc(Cl)c(/C=C3\\SC(=S)NC3=O)cc2c1",
    "inhibition of growth at 50 µg/mL [%]": 99.6
  },
  {
    "structure smiles": "COc1ccc2cc(/C=C3\\SC(=S)NC3=O)c(Cl)nc2c1",
    "inhibition of growth at 50 µg/mL [%]": 100
  },
  {
    "structure smiles": "COc1ccc2nc(Cl)c(/C=C3\\SC(=S)NC3=O)cc2c1",
    "inhibition of growth at 50 µg/mL [%]": 99
  },
  {
    "structure smiles": "O=C1NC(=S)S/C1=C\\c1cc2cc(Cl)ccc2nc1Cl",
    "inhibition of growth at 50 µg/mL [%]": 101
  },
  {
    "structure smiles": "Cc1cccc2cc(/C=C3\\SC(=S)NC3=O)c(Cl)nc12",
    "inhibition of growth at 50 µg/mL [%]": 100
  },
  {
    "structure smiles": "O=C(O)CN1C(=O)/C(=C/c2cc3cc(F)ccc3nc2Cl)SC1=S",
    "inhibition of growth at 50 µg/mL [%]": 99.8
  }
]
